// inhibition lookup, one value per entry
assay.procedure: RCMB18 cell growth, single agent and combined, cisplatin and BGB IC40 combos (AID 1671462);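 also: cells exposed to compound for four days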
study.conditions: RCMB18 medulloblastoma cells, single agent, at 5 µM, stronger effect = higher value
// return numeric value only (unit: %, not printed)

Known inhibition results, listed for orientation:
O=c1[nH]c(=O)n(C2CC(O)C(CO)O2)cc1I (centres undefined) :: -39.8
CC(C)c1ccc(-c2cc(=O)c3ccccc3o2)cc1 :: 35
C[C@@H]1O[C@@H](O[C@@H]2[C@@H](O)[C@H](OCCc3ccc(O)c(O)c3)O[C@H](CO)[C@H]2OC(=O)C=Cc2ccc(O)c(O)c2)[C@H](O)[C@H](O)[C@H]1O :: -0.98

# evaluate next
Can you look up the measured inhibition of COc1cccc2c1C(=O)c1c(O)c3c(c(O)c1C2=O)CC(O)(C(=O)CO)CC3OC1CC(N)C(OC2CCCCO2)C(C)O1 (centres undefined) for me? 71.6

====

assay.procedure: drug combination growth inhibition, ovarian cancer – cell-based, oncology-focused library, rucaparib conditional, profiling panel (AID 1508598)
study.conditions: patient-derived ovarian cancer cells, CellTiter-Glo viability, 144 h; at 0.000305 µM; OCI-C5x cells; without rucaparib; stronger effect = lower value
metric: viability (%)
// return numeric value only (unit: %, not printed)

COc1cc([C@H]2c3cc4c(cc3[C@@H](O[C@@H]3O[C@@H]5CO[C@@H](c6cccs6)O[C@H]5[C@H](O)[C@H]3O)[C@H]3COC(=O)[C@H]23)OCO4)cc(OC)c1O :: 117
Cc1cc(NC(=O)c2cccc(NC(=O)/C=C/CN(C)C)c2)ccc1Nc1nccc(-c2cccnc2)n1 :: 133
C[C@]12CC[C@H]3c4ccc(O)cc4CC[C@H]3[C@@H]1CCC2=O :: 116
CN(C)CCOc1ccc(-c2nc(-c3ccc4c(c3)CCC4=NO)c(-c3ccncc3)[nH]2)cc1 :: 144
CCc1c2c(nc3ccc(OC(=O)N4CCC(N5CCCCC5)CC4)cc13)-c1cc3c(c(=O)n1C2)COC(=O)[C@@]3(O)CC :: 112
N[C@@H]1CCCN(c2c(/C=C3\SC(=O)NC3=O)cccc2-c2ccccc2)C1 :: 122

Can you look up the measured viability of `CC(C)C[C@H](NP(=O)(O)O[C@@H]1O[C@@H](C)[C@H](O)[C@@H](O)[C@H]1O)C(=O)N[C@@H](Cc1c[nH]c2ccccc12)C(=O)O` for me? 113

Another compound to look at: `CC#C[C@@]1(O)CC[C@H]2[C@@H]3CCC4=CC(=O)CCC4=C3[C@H](c3ccc(N(C)C)cc3)C[C@@]21C` 104

Another compound to look at: `O=C(/C=C/c1ccc2ccccc2n1)c1ccncc1` 116

====

assay.procedure: viability loss with induced miR-34 in A549 – imaging, A549 dox-inducible miR-34, nuclei and caspase counts, primary screen (AID 1347080)
study.conditions: A549 miR-34 inducible, Hoechst nuclei count, 48 h; stronger effect = lower value; cell number ratio, induced over uninduced
Kindly apply the following: y if fold change is less than 0.9, n in every other case.

Example entries and their recorded answers appear below.
COc1cc(C(=O)NC2CCN(C)CC2)ccc1Nc1ncc2c(n1)N(C1CCCC1)CC(F)(F)C(=O)N2C :: n
OC[C@H]1O[C@@H](n2cnc3c(NC4CCCCC4)ncnc32)[C@H](O)[C@@H]1O :: n
NC1(C(=O)O)CCCCC1 :: n
COC1C(O)CC(=O)OC(C)CC=CC=CC(OC2CCC(N(C)C)C(C)O2)C(C)CC(CC=O)C1OC1OC(C)C(OC2C[C@](C)(O)C(O)C(C)O2)C(N(C)C)C1O (stereo not given in full) :: n

Answer whether the compound COc1cccc2c1C(=O)c1c(O)c3c(c(O)c1C2=O)C[C@@](O)(C(C)=O)CC3O[C@H]1CC(N)C(O)C(C)O1 (stereo not given in full) has fold change strictly less than 0.9 n

Another compound to look at: `S=c1[nH]c(-c2ccccc2)cn1-c1ccccc1` n

Another compound to look at: `NC[C@@H]1O[C@H](c2ccccc2)Cc2c1ccc(O)c2O` n

Another compound to look at: Cc1ccc(-c2c(-c3nn(C)c4ncnc(N5CCC(N6CCCCC6)C5)c34)cnn2C)cc1 (stereo not given) n

Another compound to look at: `O=C(O)C(S)=Cc1c[nH]c2ccc(F)cc12` n

Another compound to look at: `CCCCC[C@H](O)CC(=O)CCc1ccc(O)c(OC)c1` n

Another compound to look at: CN1CCN(Cc2cccc(-n3cccn3)c2)CC1CCO (stereo not given) y

Another compound to look at: `O=C(O)CNC(=O)Cc1c[nH]c2ccccc12` y
